Every entry's value here was drawn from BigSolDB 2.1.

TEST_SETTINGS: in 2-butanone, 303.15 K
REPORTED_ENDPOINT: solubility (mole fraction)
// no unit, no text: just the number

The reported solubility (mole fraction) of the compound NC(N)=NCCC[C@H](NC(=O)OCc1ccccc1)C(=O)O was 0.000136

---

TEST_SETTINGS: in acetone, 293.15 K
REPORTED_ENDPOINT: solubility (mole fraction)
// no unit, no text: just the number

The reported solubility (mole fraction) of the compound NC(N)=NCCC[C@H](NC(=O)OCc1ccccc1)C(=O)O was 4.7e-05

---

TEST_SETTINGS: in n-butanol, 293.15 K
REPORTED_ENDPOINT: solubility (mole fraction)
// no unit, no text: just the number

The reported solubility (mole fraction) of the molecule NC(N)=NCCC[C@H](NC(=O)OCc1ccccc1)C(=O)O was 0.000103

---

TEST_SETTINGS: in 2-butanone, 323.15 K
REPORTED_ENDPOINT: solubility (mole fraction)

The reported solubility (mole fraction) of the compound NC(N)=NCCC[C@H](NC(=O)OCc1ccccc1)C(=O)O was 0.000196

---

TEST_SETTINGS: in ethyl acetate, 303.15 K
REPORTED_ENDPOINT: solubility (mole fraction)
// no unit, no text: just the number

The reported solubility (mole fraction) of the compound NC(N)=NCCC[C@H](NC(=O)OCc1ccccc1)C(=O)O was 7.31e-05

---

TEST_SETTINGS: in methanol, 283.15 K
REPORTED_ENDPOINT: solubility (mole fraction)

The reported solubility (mole fraction) of the compound NC(N)=NCCC[C@H](NC(=O)OCc1ccccc1)C(=O)O was 0.000468

---

TEST_SETTINGS: in DMF, 303.15 K
REPORTED_ENDPOINT: solubility (mole fraction)
// no unit, no text: just the number

The reported solubility (mole fraction) of the compound NC(N)=NCCC[C@H](NC(=O)OCc1ccccc1)C(=O)O was 0.00597

---

TEST_SETTINGS: in n-hexane, 283.15 K
REPORTED_ENDPOINT: solubility (mole fraction)
// no unit, no text: just the number

The reported solubility (mole fraction) of the molecule NC(N)=NCCC[C@H](NC(=O)OCc1ccccc1)C(=O)O was 4.3e-05

---

TEST_SETTINGS: in dichloromethane, 293.15 K
REPORTED_ENDPOINT: solubility (mole fraction)

The reported solubility (mole fraction) of the compound NC(N)=NCCC[C@H](NC(=O)OCc1ccccc1)C(=O)O was 0.000144

---

TEST_SETTINGS: in n-butanol, 283.15 K
REPORTED_ENDPOINT: solubility (mole fraction)

The reported solubility (mole fraction) of the molecule NC(N)=NCCC[C@H](NC(=O)OCc1ccccc1)C(=O)O was 6.05e-05

---

TEST_SETTINGS: in isopropanol, 283.15 K
REPORTED_ENDPOINT: solubility (mole fraction)
// no unit, no text: just the number

The reported solubility (mole fraction) of the compound NC(N)=NCCC[C@H](NC(=O)OCc1ccccc1)C(=O)O was 7.15e-05

---

TEST_SETTINGS: in isopropanol, 303.15 K
REPORTED_ENDPOINT: solubility (mole fraction)
// no unit, no text: just the number

The reported solubility (mole fraction) of the compound NC(N)=NCCC[C@H](NC(=O)OCc1ccccc1)C(=O)O was 0.000163
